Target: CFTR G551D mutant (Homo sapiens, UniProt P13569, G551D)
Sequence (P13569 whole entry G551D): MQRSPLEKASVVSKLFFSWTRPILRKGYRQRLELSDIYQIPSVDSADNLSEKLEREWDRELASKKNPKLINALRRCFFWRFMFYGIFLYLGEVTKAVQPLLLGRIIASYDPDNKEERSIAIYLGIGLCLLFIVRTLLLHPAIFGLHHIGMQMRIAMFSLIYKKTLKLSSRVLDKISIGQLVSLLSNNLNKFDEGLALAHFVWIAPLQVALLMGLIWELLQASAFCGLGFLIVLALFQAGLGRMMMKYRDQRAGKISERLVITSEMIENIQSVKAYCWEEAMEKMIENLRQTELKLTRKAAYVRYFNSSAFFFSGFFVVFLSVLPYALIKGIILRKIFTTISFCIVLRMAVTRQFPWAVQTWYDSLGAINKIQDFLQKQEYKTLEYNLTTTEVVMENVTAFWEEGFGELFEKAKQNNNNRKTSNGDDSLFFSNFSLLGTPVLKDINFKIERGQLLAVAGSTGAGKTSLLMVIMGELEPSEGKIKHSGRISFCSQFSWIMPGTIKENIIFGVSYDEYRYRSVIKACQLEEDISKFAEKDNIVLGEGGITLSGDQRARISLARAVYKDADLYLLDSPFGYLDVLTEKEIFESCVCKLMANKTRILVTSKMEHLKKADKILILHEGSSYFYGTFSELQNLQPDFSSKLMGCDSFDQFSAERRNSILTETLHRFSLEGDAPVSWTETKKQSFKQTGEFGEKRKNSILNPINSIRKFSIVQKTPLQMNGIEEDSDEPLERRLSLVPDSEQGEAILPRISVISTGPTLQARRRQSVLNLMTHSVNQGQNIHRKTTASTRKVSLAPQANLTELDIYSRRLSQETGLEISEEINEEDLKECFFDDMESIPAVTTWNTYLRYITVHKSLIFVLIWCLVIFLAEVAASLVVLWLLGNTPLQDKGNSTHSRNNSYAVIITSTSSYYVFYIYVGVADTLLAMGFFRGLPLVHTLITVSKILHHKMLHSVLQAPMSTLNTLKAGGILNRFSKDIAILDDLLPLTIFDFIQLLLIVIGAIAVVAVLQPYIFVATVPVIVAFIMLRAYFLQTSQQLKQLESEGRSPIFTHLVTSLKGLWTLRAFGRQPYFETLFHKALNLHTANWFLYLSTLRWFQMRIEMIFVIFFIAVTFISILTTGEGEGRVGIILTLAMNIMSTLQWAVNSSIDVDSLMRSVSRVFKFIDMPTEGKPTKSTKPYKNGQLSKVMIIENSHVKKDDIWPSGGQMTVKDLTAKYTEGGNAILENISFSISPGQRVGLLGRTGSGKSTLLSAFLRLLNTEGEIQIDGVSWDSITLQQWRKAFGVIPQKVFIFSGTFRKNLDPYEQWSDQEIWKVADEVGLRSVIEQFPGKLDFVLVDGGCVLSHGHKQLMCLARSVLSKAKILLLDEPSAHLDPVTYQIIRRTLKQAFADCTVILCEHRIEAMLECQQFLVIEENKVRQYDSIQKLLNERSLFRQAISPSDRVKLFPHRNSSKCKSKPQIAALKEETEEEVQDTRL
Experiment: YFP-halide influx assay for the CFTR-G551D mutation (HEK293 cells)
Conditions: forskolin 10.67 μM
Below, each of the molecules is paired with its reported EC50 value.
OUTCOME MEASURE: EC50 (nM)

[
  {
    "MOLECULE": "Nc1cc(S(=O)(=O)c2ccc(F)cc2)cnc1C(=O)NC[C@H](O)C(F)(F)F",
    "ASSAYED SYSTEM": "CFTR G551D mutant (Homo sapiens, UniProt P13569, G551D)",
    "UNIT OF MEASUREMENT": "nM",
    "LIMIT SIGN": "=",
    "NUMERIC RESULT": 976
  },
  {
    "MOLECULE": "Nc1cc(S(=O)(=O)c2ccccc2)cnc1C(=O)NC[C@@H](O)C(F)(F)F",
    "ASSAYED SYSTEM": "CFTR G551D mutant (Homo sapiens, UniProt P13569, G551D)",
    "UNIT OF MEASUREMENT": "nM",
    "LIMIT SIGN": "=",
    "NUMERIC RESULT": 1070
  },
  {
    "MOLECULE": "CC1CCN(S(=O)(=O)c2cnc(C(=O)NCC(O)C(F)(F)F)c(N)c2)CC1 (stereo not shown)",
    "ASSAYED SYSTEM": "CFTR G551D mutant (Homo sapiens, UniProt P13569, G551D)",
    "UNIT OF MEASUREMENT": "nM",
    "LIMIT SIGN": "=",
    "NUMERIC RESULT": 392
  },
  {
    "MOLECULE": "CC(C)COCC(O)CNC(=O)c1ncc(S(=O)(=O)c2ccc(C(F)(F)F)cc2)cc1N (stereo not shown)",
    "ASSAYED SYSTEM": "CFTR G551D mutant (Homo sapiens, UniProt P13569, G551D)",
    "UNIT OF MEASUREMENT": "nM",
    "LIMIT SIGN": "=",
    "NUMERIC RESULT": 661
  },
  {
    "MOLECULE": "Nc1cc(S(=O)(=O)c2ccc(OC(F)(F)F)cc2)cnc1C(=O)N1CC2(CCCOC2)C1",
    "ASSAYED SYSTEM": "CFTR G551D mutant (Homo sapiens, UniProt P13569, G551D)",
    "UNIT OF MEASUREMENT": "nM",
    "LIMIT SIGN": "=",
    "NUMERIC RESULT": 1330
  },
  {
    "MOLECULE": "Nc1cc(S(=O)(=O)c2ccc(OC(F)(F)F)cc2)cnc1C(=O)NCCN1CCOCC1",
    "ASSAYED SYSTEM": "CFTR G551D mutant (Homo sapiens, UniProt P13569, G551D)",
    "UNIT OF MEASUREMENT": "nM",
    "LIMIT SIGN": ">",
    "NUMERIC RESULT": 3330
  },
  {
    "MOLECULE": "COc1ccc(S(=O)(=O)c2cnc(C(=O)NCC(O)C(F)(F)F)c(N)c2)cc1 (stereo not shown)",
    "ASSAYED SYSTEM": "CFTR G551D mutant (Homo sapiens, UniProt P13569, G551D)",
    "UNIT OF MEASUREMENT": "nM",
    "LIMIT SIGN": "=",
    "NUMERIC RESULT": 791
  },
  {
    "MOLECULE": "Nc1cc(S(=O)(=O)c2ccccc2OC(F)(F)F)cnc1C(=O)NC[C@@H](O)C(F)(F)F",
    "ASSAYED SYSTEM": "CFTR G551D mutant (Homo sapiens, UniProt P13569, G551D)",
    "UNIT OF MEASUREMENT": "nM",
    "LIMIT SIGN": "=",
    "NUMERIC RESULT": 239
  },
  {
    "MOLECULE": "C[C@H](O)CNC(=O)c1nc(N(C)C)c(S(=O)(=O)c2ccc(OC(F)(F)F)cc2)cc1N",
    "ASSAYED SYSTEM": "CFTR G551D mutant (Homo sapiens, UniProt P13569, G551D)",
    "UNIT OF MEASUREMENT": "nM",
    "LIMIT SIGN": "=",
    "NUMERIC RESULT": 2620
  },
  {
    "MOLECULE": "C[C@H](O)CNC(=O)c1ncc(S(=O)(=O)c2ccc(C(F)(F)F)cc2)cc1N",
    "ASSAYED SYSTEM": "CFTR G551D mutant (Homo sapiens, UniProt P13569, G551D)",
    "UNIT OF MEASUREMENT": "nM",
    "LIMIT SIGN": "=",
    "NUMERIC RESULT": 1140
  }
]

====

Quick reference: pEC50 of the listed items.
Biological target: CFTR ΔF508 mutant (Homo sapiens, UniProt P13569, DEL508-508)
Sequence (P13569 with tags, fused parts or gaps DEL508-508): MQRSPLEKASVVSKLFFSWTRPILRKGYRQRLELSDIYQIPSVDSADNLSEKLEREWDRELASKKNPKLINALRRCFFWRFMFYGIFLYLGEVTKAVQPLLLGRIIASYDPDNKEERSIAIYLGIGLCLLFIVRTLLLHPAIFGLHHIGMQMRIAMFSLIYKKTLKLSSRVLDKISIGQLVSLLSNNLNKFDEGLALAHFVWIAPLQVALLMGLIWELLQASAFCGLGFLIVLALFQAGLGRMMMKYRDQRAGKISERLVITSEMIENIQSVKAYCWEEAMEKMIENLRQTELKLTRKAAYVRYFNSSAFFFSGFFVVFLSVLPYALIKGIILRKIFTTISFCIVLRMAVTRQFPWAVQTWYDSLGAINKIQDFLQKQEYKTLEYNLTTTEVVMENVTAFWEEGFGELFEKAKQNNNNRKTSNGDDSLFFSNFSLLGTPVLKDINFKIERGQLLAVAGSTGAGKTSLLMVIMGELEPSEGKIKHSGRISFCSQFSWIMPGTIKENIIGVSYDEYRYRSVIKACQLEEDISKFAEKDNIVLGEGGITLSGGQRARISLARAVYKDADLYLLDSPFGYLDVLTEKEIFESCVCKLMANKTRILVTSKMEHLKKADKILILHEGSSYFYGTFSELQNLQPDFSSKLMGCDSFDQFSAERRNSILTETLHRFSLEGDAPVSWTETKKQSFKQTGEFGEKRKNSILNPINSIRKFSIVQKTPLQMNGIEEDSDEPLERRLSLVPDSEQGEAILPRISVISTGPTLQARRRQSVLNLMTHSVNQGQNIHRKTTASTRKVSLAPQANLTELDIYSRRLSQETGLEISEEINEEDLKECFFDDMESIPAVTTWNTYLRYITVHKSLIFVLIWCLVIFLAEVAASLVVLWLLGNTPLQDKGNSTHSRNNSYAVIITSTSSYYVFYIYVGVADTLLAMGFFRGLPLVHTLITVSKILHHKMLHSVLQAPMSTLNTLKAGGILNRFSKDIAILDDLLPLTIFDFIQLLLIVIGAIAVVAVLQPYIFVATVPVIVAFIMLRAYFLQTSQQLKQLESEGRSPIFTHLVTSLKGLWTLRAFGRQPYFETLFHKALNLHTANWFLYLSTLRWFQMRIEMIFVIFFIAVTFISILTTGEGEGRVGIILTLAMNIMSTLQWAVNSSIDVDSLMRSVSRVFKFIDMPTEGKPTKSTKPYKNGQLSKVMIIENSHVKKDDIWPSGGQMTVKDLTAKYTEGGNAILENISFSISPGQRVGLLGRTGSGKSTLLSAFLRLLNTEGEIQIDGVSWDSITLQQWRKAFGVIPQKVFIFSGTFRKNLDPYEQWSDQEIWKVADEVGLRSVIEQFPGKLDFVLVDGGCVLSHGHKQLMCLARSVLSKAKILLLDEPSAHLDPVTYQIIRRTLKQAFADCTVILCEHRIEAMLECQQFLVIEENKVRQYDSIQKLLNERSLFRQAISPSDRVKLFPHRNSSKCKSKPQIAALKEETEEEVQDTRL
Assay: YFP-halide influx assay for the CFTR-ΔF508 mutation (CFBE41o- cells)
Conditions: forskolin 10.67 μM, from (1−F/F0) vs concentration plot
pEC50: −log10 of the molar value.

[
  {
    "COMPOUND": "Nc1cc(S(=O)(=O)c2ccc(OC(F)(F)F)cc2)cnc1C(=O)NCC(O)CF (stereo not shown) [Compound 273]",
    "ASSAYED SYSTEM": "CFTR ΔF508 mutant (Homo sapiens, UniProt P13569, DEL508-508)",
    "pEC50": 7.99
  },
  {
    "COMPOUND": "CC(C)CC(O)CNC(=O)c1ncc(S(=O)(=O)c2ccc(OC(F)(F)F)cc2)cc1N (stereo not shown) [Compound 87]",
    "ASSAYED SYSTEM": "CFTR ΔF508 mutant (Homo sapiens, UniProt P13569, DEL508-508)",
    "pEC50": 7.92
  },
  {
    "COMPOUND": "CC(C)NC(=O)CNC(=O)c1ncc(S(=O)(=O)N2CCC[C@@H]2C)cc1N [Compound 270]",
    "ASSAYED SYSTEM": "CFTR ΔF508 mutant (Homo sapiens, UniProt P13569, DEL508-508)",
    "pEC50": 6.84
  },
  {
    "COMPOUND": "CC[C@H](NC(=O)c1ncc(S(=O)(=O)c2ccc(OC(F)(F)F)cc2)cc1N)C(N)=O [Compound 93]",
    "ASSAYED SYSTEM": "CFTR ΔF508 mutant (Homo sapiens, UniProt P13569, DEL508-508)",
    "pEC50": 7.02
  },
  {
    "COMPOUND": "Nc1cc(S(=O)(=O)N2CC(F)(F)C2)cnc1C(=O)NCC(O)C(F)(F)F (stereo not shown) [Compound 97]",
    "ASSAYED SYSTEM": "CFTR ΔF508 mutant (Homo sapiens, UniProt P13569, DEL508-508)",
    "pEC50": 6.99
  },
  {
    "COMPOUND": "CC(C)NC(=O)CNC(=O)c1ncc(S(=O)(=O)c2ccc(OC(F)(F)F)cc2F)cc1N [Compound 135]",
    "ASSAYED SYSTEM": "CFTR ΔF508 mutant (Homo sapiens, UniProt P13569, DEL508-508)",
    "pEC50": 8.07
  },
  {
    "COMPOUND": "COC[C@H](O)CNC(=O)c1ncc(S(=O)(=O)c2ccc(C(F)(F)F)cc2F)cc1N [Compound 99]",
    "ASSAYED SYSTEM": "CFTR ΔF508 mutant (Homo sapiens, UniProt P13569, DEL508-508)",
    "pEC50": 8.12
  }
]

====

Target: CFTR G551D mutant (Homo sapiens, UniProt P13569, G551D)
Test: YFP-halide influx assay for the CFTR-G551D mutation (HEK293 cells)
Settings: forskolin 10.67 μM
pEC50: −log10 of the molar value.
Catalogue of pEC50 values
OUTCOME MEASURE: pEC50

[
  {
    "MOL": "Nc1cc(S(=O)(=O)c2ccc(OC(F)(F)F)cc2)cnc1C(=O)N[C@@H]1CCOC1",
    "ASSAYED SYSTEM": "CFTR G551D mutant (Homo sapiens, UniProt P13569, G551D)",
    "RESULT": "< 5.00"
  },
  {
    "MOL": "CC(C)C1(O)CN(C(=O)c2ncc(S(=O)(=O)c3ccc(OC(F)(F)F)cc3F)cc2N)C1",
    "ASSAYED SYSTEM": "CFTR G551D mutant (Homo sapiens, UniProt P13569, G551D)",
    "RESULT": "< 5.48"
  },
  {
    "MOL": "CO[C@H]1CCC[C@@H]1NC(=O)c1ncc(S(=O)(=O)c2ccc(C(F)(F)F)cc2)cc1N",
    "ASSAYED SYSTEM": "CFTR G551D mutant (Homo sapiens, UniProt P13569, G551D)",
    "RESULT": "< 5.48"
  },
  {
    "MOL": "Nc1cc(S(=O)(=O)c2ccc(OC(F)(F)F)cc2)cnc1C(=O)NCC1CCOCC1",
    "ASSAYED SYSTEM": "CFTR G551D mutant (Homo sapiens, UniProt P13569, G551D)",
    "RESULT": "< 5.00"
  },
  {
    "MOL": "CC(C)(O)CNC(=O)c1ncc(S(=O)(=O)c2ccc(F)cc2)cc1N",
    "ASSAYED SYSTEM": "CFTR G551D mutant (Homo sapiens, UniProt P13569, G551D)",
    "RESULT": "< 5.48"
  },
  {
    "MOL": "CC(C)CNC(=O)c1ncc(S(=O)(=O)c2ccc(C(F)(F)F)cc2)cc1N",
    "ASSAYED SYSTEM": "CFTR G551D mutant (Homo sapiens, UniProt P13569, G551D)",
    "RESULT": "< 5.00"
  }
]
